test system: Plasmodium falciparum; test: Antiplasmodial activity against chloroquine-sensitive Plasmodium falciparum after 30 to 34 hr by schizont maturation assay; format: functional, organism-based
quantity_measured: IC50
Numeric answer plus unit only.

INSERT INTO measurements (chem_smiles, quantity_measured, observed_measurement) VALUES
  ('Brc1cc2c(c3ncccc13)Oc1cc(Br)c3cccnc3c1O2', 'IC50', '7.4 µM'),
  ('Brc1cc2c(c3ncccc13)Oc1ncccc1O2', 'IC50', '6.4 µM');

Now look at this entry.
Entry Clc1ncccc1Oc1cc2c(c3ncccc13)Oc1ncccc1O2 , system Plasmodium falciparum: what IC50 was measured? 3.7 µM

====

assay: Inhibition of beta-hematin polymerization after 24 hr by spectrophotometric analysis; type: physicochemical
quantity_measured: pIC50
pIC50 is a log-scale quantity: -log10 of the concentration expressed in molar.

INSERT INTO results (molecule, quantity_measured, observed_measurement) VALUES
  ('CCN(CC)CCCC(C)Nc1ccnc2cc(Cl)ccc12 (centres undefined)', 'pIC50', 2.72);

Requested field: pIC50. Item: Clc1ncccc1Oc1cc2c(c3ncccc13)Oc1ncccc1O2 2.68

Need pIC50 of Brc1cc2c(c3ncccc13)Oc1cc(Br)c3cccnc3c1O2 , thanks. 2.56

Dear colleague, I am looking for the recorded pIC50 of the following molecule: Brc1cc2c(c3ncccc13)Oc1ncccc1O2 2.66
